molecular target: hDGAT1 (Homo sapiens, UniProt O75907); construct: endogenous in cells; assay: Cell based hDGAT1 inhibitory activity in HEK293H cells (13C-oleic acid to triolein, LC-MS)
Sequence (O75907 whole entry): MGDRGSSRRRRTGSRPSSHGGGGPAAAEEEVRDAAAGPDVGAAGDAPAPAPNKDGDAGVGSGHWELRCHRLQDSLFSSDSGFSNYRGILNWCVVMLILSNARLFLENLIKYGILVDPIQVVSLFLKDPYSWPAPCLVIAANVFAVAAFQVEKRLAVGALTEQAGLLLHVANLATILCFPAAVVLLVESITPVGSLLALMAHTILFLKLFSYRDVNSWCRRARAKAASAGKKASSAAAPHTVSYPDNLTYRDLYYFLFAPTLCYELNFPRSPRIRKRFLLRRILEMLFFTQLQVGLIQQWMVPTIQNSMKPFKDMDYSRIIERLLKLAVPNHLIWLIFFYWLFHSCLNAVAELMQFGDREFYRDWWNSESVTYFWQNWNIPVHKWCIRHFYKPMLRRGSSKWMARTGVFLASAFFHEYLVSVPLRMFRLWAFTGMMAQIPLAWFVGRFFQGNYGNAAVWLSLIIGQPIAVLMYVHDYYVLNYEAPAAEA
readoutName: IC50

**Q:** Output IC50 of Nc1ncnc2c1C(=O)N(c1ccc(C3CCC4(CC3)CC4C(=O)O)cc1)CCO2 (stereo not shown) [Example I3]
**A:** 26 nM

**Q:** Output IC50 of O=C(O)CC1CCC2(CC1)CCN(c1ccc(NC(=O)c3nnc(Nc4ccccc4)o3)cn1)CC2
**A:** 12 nM

**Q:** Output IC50 of O=C(O)CC1CCC2(CC1)CCC(c1ccc(NC(=O)c3nnc(Nc4ccc(F)c(F)c4)o3)cc1)CC2 (stereo not shown)
**A:** 15 nM

**Q:** Output IC50 of O=C(O)CC1CCC2(CC1)CCN(c1ccc(NC(=O)c3nnc(Nc4ccc(F)c(F)c4)o3)cn1)CC2
**A:** 10 nM
